Reference for the values: paper PMC10786891

- Target Desc: T1, EsCas13d, nuclease-dead (Eubacterium siraeum, UniProt B0MS50, R295A;H300A;R849A;H854A)
- T1 sequence: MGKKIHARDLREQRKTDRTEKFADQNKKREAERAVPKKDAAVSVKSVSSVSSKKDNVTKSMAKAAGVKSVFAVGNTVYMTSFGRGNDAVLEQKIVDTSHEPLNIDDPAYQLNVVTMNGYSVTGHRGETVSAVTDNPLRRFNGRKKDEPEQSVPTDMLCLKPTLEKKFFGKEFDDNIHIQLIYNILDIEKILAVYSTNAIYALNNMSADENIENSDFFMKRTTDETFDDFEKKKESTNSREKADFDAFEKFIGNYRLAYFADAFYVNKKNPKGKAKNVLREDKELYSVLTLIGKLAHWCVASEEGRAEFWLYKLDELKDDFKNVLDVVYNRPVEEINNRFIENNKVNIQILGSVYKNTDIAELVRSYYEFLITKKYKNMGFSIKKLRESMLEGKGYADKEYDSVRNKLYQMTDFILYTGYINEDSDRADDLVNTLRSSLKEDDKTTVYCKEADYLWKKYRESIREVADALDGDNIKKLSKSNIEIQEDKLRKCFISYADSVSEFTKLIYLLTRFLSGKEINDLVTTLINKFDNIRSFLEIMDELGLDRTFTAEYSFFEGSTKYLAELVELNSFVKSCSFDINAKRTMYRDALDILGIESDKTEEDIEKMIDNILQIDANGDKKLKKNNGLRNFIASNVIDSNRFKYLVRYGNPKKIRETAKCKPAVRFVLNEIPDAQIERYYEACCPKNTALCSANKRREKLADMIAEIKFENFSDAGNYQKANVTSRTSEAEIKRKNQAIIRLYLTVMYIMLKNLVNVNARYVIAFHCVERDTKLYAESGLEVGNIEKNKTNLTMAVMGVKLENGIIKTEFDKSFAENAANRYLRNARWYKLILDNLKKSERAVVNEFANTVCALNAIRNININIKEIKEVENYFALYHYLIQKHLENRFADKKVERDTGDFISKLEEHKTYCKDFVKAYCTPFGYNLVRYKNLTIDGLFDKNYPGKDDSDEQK
- Experiment Summary: crRNA (strand 1, pre-loaded); Mg2+; 40 mM Tris-HCl pH 7.5, 150 mM NaCl, 6 mM MgCl2, 1 mM DTT, 0.1% Tween-20, 0.2 mg/ml BSA; 25 C; 10 min per concentration, then washed
- Setup Conditions: tags: His6-TwinStrep-SUMO cleaved; N-terminal SNAP kept (SNAP-Surface 488); label: 3' end held by stalled T7 RNA polymerase
Value Type: Kd

Query: Query Kd for target 1 MT 5'PFS AGC 3'PFS AAA (mixed) RNA 1: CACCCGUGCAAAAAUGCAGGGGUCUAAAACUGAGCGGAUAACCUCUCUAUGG RNA 2: GGGAAUGGAUCCACAUCUACGAAUUCAGCCCAUAGAGAGGUUAUCCGCUCAAAAAGAUCGGAAGAGCACACGU
Result: ~52 nM

Query: Look up and state reported Kd for target 2 MT 5'PFS UGU 3'PFS CUC (mixed) RNA 1: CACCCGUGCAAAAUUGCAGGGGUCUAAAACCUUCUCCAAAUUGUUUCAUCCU RNA 2: GGGAAUGGAUCCACAUCUACGAAUUCUGUAGGAUGAAACAAUUUGGAGAAGCUCAGAUCGGAAGAGCACACGU
Result: ~50 nM

Query: Using the record for target 1 MT 5'PFS CUC 3'PFS CUA (mixed) RNA 1: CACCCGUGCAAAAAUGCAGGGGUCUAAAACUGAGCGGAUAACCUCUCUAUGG RNA 2: GGGAAUGGAUCCACAUCUACGAAUUCCUCCCAUAGAGAGGUUAUCCGCUCACUAAGAUCGGAAGAGCACACGU , state its measured Kd.
Result: ~39 nM

Query: Give the reported value of Kd for this record: target 1 MT 5'PFS GUC 3'PFS ACA (mixed) RNA 1: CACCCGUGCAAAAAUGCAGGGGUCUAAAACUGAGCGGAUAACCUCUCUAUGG RNA 2: GGGAAUGGAUCCACAUCUACGAAUUCGUCCCAUAGAGAGGUUAUCCGCUCAACAAGAUCGGAAGAGCACACGU
Result: ~56 nM
